Every entry's value here was drawn from ChEMBL document CHEMBL1121619.

# Lookup of reported log10 Kb keyed by entry
- Assay system: 5-hydroxytryptamine receptor 2B (Rattus norvegicus)
- Sequence (P30994 whole entry): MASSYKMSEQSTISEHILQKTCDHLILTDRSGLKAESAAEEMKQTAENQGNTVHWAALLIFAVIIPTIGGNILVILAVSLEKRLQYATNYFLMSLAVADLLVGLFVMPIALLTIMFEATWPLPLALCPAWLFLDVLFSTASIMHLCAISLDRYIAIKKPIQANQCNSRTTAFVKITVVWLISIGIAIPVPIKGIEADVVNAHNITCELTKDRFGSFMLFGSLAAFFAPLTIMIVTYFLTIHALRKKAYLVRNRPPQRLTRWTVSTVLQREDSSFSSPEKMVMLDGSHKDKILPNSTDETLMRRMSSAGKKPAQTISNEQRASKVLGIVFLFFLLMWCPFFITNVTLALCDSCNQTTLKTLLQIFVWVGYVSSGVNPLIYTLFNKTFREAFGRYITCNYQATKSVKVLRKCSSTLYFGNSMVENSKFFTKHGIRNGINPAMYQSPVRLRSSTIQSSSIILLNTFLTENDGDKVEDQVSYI
- Test details: Antagonistic against 5-hydroxytryptamine 2B receptor
- Format: functional
- Applied conditions: read-out: pA2 (converted)
Values reflect log10 of reported Kb (nM).

Sample records with log10 Kb:
COc1ccc(O)c(CC(C)N)c1 (stereo not given) ... 2.17
COc1ccc(O)c(CCN(C)C)c1 ... 2.48
COc1cc(C)c(O)cc1CC(C)N (stereo not given) ... 1.88
COc1ccc(CC(C)N)c(O)c1 (stereo not given) ... 3.40
COc1cc(CC(C)N)c(O)cc1C (stereo not given) ... 1.88
COc1ccc(OCc2ccccc2)c(CCN(C)C)c1 ... 2.48

Endpoint output: log10 Kb of COc1ccc(O)c(CC(C)N(C)C)c1 (stereo not given) . Value? 2.50

// query: COc1ccc(O)c(CCN)c1 2.15

// query: COc1cc(CC(C)N)ccc1O (stereo not given) 3.55

// query: COc1ccc(CC(C)N)cc1O (stereo not given) 3.55
